Test system: 415267-285-R-J2-PDC complex spheroid viability;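 further: luminescence used as stand-in measure of viable cells; spheroids exposed to compounds for one week before readout; 100% = DMSO vehicle control viability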
Assay: Anticancer human tumor 415267-285-R-J2-PDC patient-derived breast carcinoma cell line growth inhibition [POLQ]
Conditions: second compound 1 µM; first compound 10 µM; active compounds read low
Mark 1 only for viability, T/C values smaller than 90%; exact matches and larger values are 0.

- Compound: "O=C(Nc1ccc(O)c(NS(=O)(=O)c2ccc(F)cc2)c1)c1ccc(-c2ccccc2)cc1 + COC1C(OC(N)=O)C(O)C(Oc2ccc3c(O)c(NC(=O)c4ccc(O)c(CC=C(C)C)c4)c(=O)oc3c2C)OC1(C)C"
  Class Label: 1
- Compound: "O=C(c1cc(Cc2n[nH]c(=O)c3ccccc23)ccc1F)N1CCN(C(=O)C2CC2)CC1 + Nc1ccc(C#CCN(C(=O)Cc2ncc(C(F)(F)F)cc2C(F)(F)F)c2ccc(F)cc2)nn1"
  Class Label: 0
- Compound: "CC1COCCN1c1cc(C2(O)CC3CCC(C2)O3)c2cnn(-c3ccn[nH]3)c2n1 (stereo unspecified) + Cc1cccc(N(C)C(=O)C2C(O)CCN2c2nc(C)cc(C(F)(F)F)c2C#N)c1"
  Class Label: 1
- Compound: "O=C(Nc1ccc(O)c(NS(=O)(=O)c2ccc(F)cc2)c1)c1ccc(-c2ccccc2)cc1 + Nc1ccc(C#CCN(C(=O)Cc2ncc(C(F)(F)F)cc2C(F)(F)F)c2ccc(F)cc2)nn1"
  Class Label: 1
- Compound: "CCCS(=O)(=O)Nc1ccc(F)c(C(=O)c2c[nH]c3ncc(-c4ccc(Cl)cc4)cc23)c1F + Cc1cccc(N(C)C(=O)C2C(O)CCN2c2nc(C)cc(C(F)(F)F)c2C#N)c1"
  Class Label: 1

// data source = PubChem BioAssay AID1963847
